Assay: Inhibition of Salmonella enterica Threonyl-tRNA synthetase assessed as reduction in aminoacylation activity using L-threonine as substrate in presence of incubated for 3 hrs by Kinase-glo luminescence assay
READOUT: IC50 (µM)
Give the quantity in µM, number only.

Example entries begin here.
{"MOL": "C[C@@H](O)[C@H](N)C(=O)NC/C=C/Cn1cnc2cc(Br)c(Cl)cc2c1=O", "UNIT INFO": "µM", "ENDPOINT VALUE": 3.2}
{"MOL": "C[C@@H](O)[C@H](N)C(=O)NC/C=C/Cn1cnc2cc(Br)c(Br)cc2c1=O", "UNIT INFO": "µM", "ENDPOINT VALUE": 2.4}
{"MOL": "C[C@@H](O)[C@H](N)C(=O)NC/C=C/Cn1cnc2cc(Cl)c(Cl)cc2c1=O", "UNIT INFO": "µM", "ENDPOINT VALUE": 1.4}
{"MOL": "C[C@@H](O)[C@H](N)C(=O)NC/C=C/Cn1cnc2cnc(Cl)cc2c1=O", "UNIT INFO": "µM", "ENDPOINT VALUE": 49.7}
{"MOL": "C[C@@H](O)[C@H](N)C(=O)NC/C=C/Cn1cnc2cc(Cl)c(F)cc2c1=O", "UNIT INFO": "µM", "ENDPOINT VALUE": 9.7}
{"MOL": "C[C@@H](O)[C@H](N)C(=O)NC/C=C/Cn1cnc2cc(F)c(F)cc2c1=O", "UNIT INFO": "µM", "ENDPOINT VALUE": 39.4}

Q) Consider the compound C[C@@H](O)[C@H](N)C(=O)NCCCCCn1cnc2cc(Br)c(Cl)cc2c1=O and give its measured IC50.
A) 29.7

Q) Consider the compound C[C@@H](O)[C@H](N)C(=O)NCCCCCCn1cnc2cc(Br)c(Cl)cc2c1=O and give its measured IC50.
A) 7.3

Q) Consider the compound C[C@@H](O)[C@H](N)C(=O)NS(=O)(=O)c1cccc(-c2ccc3[nH]ncc3c2)c1 and give its measured IC50.
A) 0.13

Q) Consider the compound C[C@@H](O)[C@H](N)C(=O)OC/C=C/Cn1cnc2cc(Br)c(Cl)cc2c1=O and give its measured IC50.
A) 9.6

Q) Consider the compound C[C@@H](O)[C@H](N)C(=O)NC/C=C/Cn1cnc2cc3ccccc3cc2c1=O and give its measured IC50.
A) 55.5

---

Tested on: Salmonella enterica
Assay: Binding affinity to Salmonella enterica Threonyl-tRNA synthetase assessed as change in melting temperature at 0.5 mM incubated for 10 mins by SYPRO orange dye-based thermal shift assay
READOUT: ΔTm
Express the reported value numerically, then name its unit.

{"MOLECULE": "COc1cc2ncn(C/C=C/CNC(=O)[C@@H](N)[C@@H](C)O)c(=O)c2cc1OC", "READOUT": "ΔTm", "ENDPOINT VALUE": "1.5 °C"}
{"MOLECULE": "C[C@@H](O)[C@H](N)C(=O)NC/C=C/Cn1cnc2cnc(Cl)cc2c1=O", "READOUT": "ΔTm", "ENDPOINT VALUE": "14.9 °C"}
{"MOLECULE": "C[C@@H](O)[C@H](N)C(=O)NCCCCCn1cnc2cc(Br)c(Cl)cc2c1=O", "READOUT": "ΔTm", "ENDPOINT VALUE": "14 °C"}
{"MOLECULE": "Cc1cc2ncn(C/C=C/CNC(=O)[C@@H](N)[C@@H](C)O)c(=O)c2cc1C", "READOUT": "ΔTm", "ENDPOINT VALUE": "10.6 °C"}
{"MOLECULE": "C[C@@H](O)[C@H](N)C(=O)NC/C=C/Cn1cnc2cnc(F)cc2c1=O", "READOUT": "ΔTm", "ENDPOINT VALUE": "12 °C"}

Q) Consider the molecule C[C@@H](O)[C@H](N)C(=O)OCCCCCn1cnc2cc(Br)c(Cl)cc2c1=O and give its measured ΔTm.
A) 9.8 °C

Q) Consider the molecule C[C@@H](O)[C@H](N)C(=O)NCCCCCCn1cnc2cc(Br)c(Cl)cc2c1=O and give its measured ΔTm.
A) 12.4 °C

Q) Consider the molecule C[C@@H](O)[C@H](N)C(=O)N1CCC(C(=O)Cn2cnc3cc(Br)c(Cl)cc3c2=O)CC1 and give its measured ΔTm.
A) 0 °C

Q) Consider the molecule C[C@@H](O)[C@H](N)C(=O)NC/C=C/Cn1cnc2cc(Cl)c(F)cc2c1=O and give its measured ΔTm.
A) 18.8 °C

Q) Consider the molecule C[C@@H](O)[C@H](N)C(=O)NC/C=C/Cn1cnc2cc(Cl)ncc2c1=O and give its measured ΔTm.
A) 8.6 °C
